Target: T1, 14-3-3σ, full length, N-terminally His6-tagged (human, UniProt P31947 1-248)
T1 chain: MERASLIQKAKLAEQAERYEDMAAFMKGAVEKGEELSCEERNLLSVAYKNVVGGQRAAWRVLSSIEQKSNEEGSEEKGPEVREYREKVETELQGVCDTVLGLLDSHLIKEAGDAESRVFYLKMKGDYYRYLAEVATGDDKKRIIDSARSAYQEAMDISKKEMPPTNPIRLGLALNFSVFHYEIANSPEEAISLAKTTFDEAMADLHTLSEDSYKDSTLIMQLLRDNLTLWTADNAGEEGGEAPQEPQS
Assay: FP
Primed or numbered codes have the meaning given here. Where no end group is shown, it is not given here. [ ]: non-standard residue; d: D form. The star is where a group is joined. PEG2′ = short PEG linker placed between the N-terminal FITC label and the peptide; FITC = O=C1OC2(c3ccc(O)cc3Oc3cc(O)ccc32)c2ccc(NC(=S)*)cc21; pT = C[C@@H](OP(=O)(O)O)[C@H](N)C(=O)O; pS = N[C@@H](COP(=O)(O)O)C(=O)O
measured.parameter: Kd (µM)
Kindly provide the numeric value in µM only, without the unit symbol.

- binder: "EKNKNAN[pS]SPVASTTPSASATTNPASA[pT]TLDQSKAWNR (not fully specified (N-terminus); also: FITC via PEG2 linker, site not given here) [fluorescently labeled peptide 11, APN 36–73 pSer43 pThr63]"
  unit.name: "µM"
  number: 1.8
- binder: "{FITC-PEG2′}-EKNKNAN[pS]SPVASTTPSASATTNPASATTLDQSKAWNR (also: second phosphorylation within Ser61–Thr64, site not given here) [fluorescently labeled peptide 10, APN 36–73, bis-phosphorylated]"
  unit.name: "µM"
  number: 6.6
- binder: "{FITC-PEG2′}-EKNKNAN[pS]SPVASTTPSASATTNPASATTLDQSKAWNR (also: second phosphorylation within Ser61–Thr64, site not given here) [fluorescently labeled peptide 12, APN 36–73, bis-phosphorylated]"
  unit.name: "µM"
  number: 4.1

Name the recorded Kd for {FITC-PEG2′}-NKNAN[pS]SPV [FITC-labeled peptide 1, APN 38–46 pSer43] . 3.5
